- SYSTEM NAME: T1, Biotin-huCGRPaSA (human, not fully specified; biotin (position not given))
- T1 construct: exact construct ('aSA') not explained; also called Biotin CGRPaSA; full-length (1-37) CGRP
- T1 peptide: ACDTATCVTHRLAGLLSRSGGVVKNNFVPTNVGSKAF
- EXPERIMENT NOTES: ELISA, supernatant; relative to chimeric C245
MEASURED ATTRIBUTE: Relative binding activity, % (%)
Number only, in %; omit the unit.

Prompt: Quick one: Relative binding activity, % for hu147 (antibody, V domains shown, 3E5 HC-1/1A2 LC2-4) VH: QVQLVQSGAEVKKPGASVKVSCKTSGYTFTDYNMHWVRQAPGQRLEWMGYISPYNGGTAYNQKFKFRVTLTVDTSSSTAYMELSSLRSEDTAVYYCAREGLGGYWGQGTLVTVSS VL: DIQLTQSPSFLSASVGDRVTITCKASQNIDYDGYAYLNWYQQKPGKAPKVLIYSVFNLESGVPSRFSGSGSGTEFTLTISSLQPEDFATYYCQQSNEFPYTFGQGTKLEIK ?
Completion: 111

Prompt: Quick one: Relative binding activity, % for hu202 (antibody, V domains shown, 3H10 HC-1/1F5 LC1-3) VH: QVQLVQSGAEVKKPGASVKVSCKASGYTFTDYNMHWVRQAPGQGLEWMGYIYPYNGHTVYNQKFRNRVTMTVDTSSSTAYMELRSLRSDDTAVYYCAKEGLGGYWGQGTLVTVSS VL: DIVLTQSPASLAVSPGQRATITCKASQNIDFDGYAYMNWYQQKPGQPPKVLIYSVFNLESGVPARFSGSGSGTDFTLTINPVEADDTANYYCQQSHEVPYTFGQGTKLEIK ?
Completion: 90

Prompt: Quick one: Relative binding activity, % for hu113 (antibody, V domains shown, 2B8 HC1-1/2B8 LC2-1) VH: QVQLVQSGAEVKKPGASVKVSCKASGYTFTDYNMHWVRQAPGQGLEWMGNIYPYNGGTVYNQKFNNRVTLTVDTSSSTAYMELSRLRSDDTAVYYCAREGLGGYWGQGTLVTVSS VL: DIVLTQSPDSLAVSLGERATINCQASQNIDGNTYMNWYQQKPGQPPKVLIYSIFNLESGVPDRFSGSGSGTDFTLTISSLQAEDVAVYYCQQSNDYPYTFGQGTKLEIK ?
Completion: 44
